Recorded Ki by entry
Molecular target: UniProt P62942
Sequence (P62942 whole entry, species assumed): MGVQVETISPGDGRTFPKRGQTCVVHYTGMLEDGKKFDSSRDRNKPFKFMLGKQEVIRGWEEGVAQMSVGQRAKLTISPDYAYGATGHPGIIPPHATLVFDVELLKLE
Test: FKBP12 binding assay (inhibition of rotomase activity)
Format: biochemical
Details: apparent Ki
Entry rule: numbers only, all in nM.

Ki for UniProt P62942 with input CCOCc1cc2ccccc2n1-c1cccc([C@H](OC(=O)[C@@H]2CCCCN2C(=O)C(=O)c2ccco2)/C(C)=C/[C@H]2CC[C@H](O)CC2)c1 equals 53

Continuing:
Ki for UniProt P62942 with input C=CCC/C=C(\c1ccc([C@@H](CCN2CCOCC2)OC(=O)[C@@H]2CCCCN2C(=O)C(=O)C(C)(C)C)s1)C1CCOCC1 equals 45

Ki for UniProt P62942 with input CCC/C=C(/c1cccnc1)c1cccc(C(CCN2CCOCC2)OC(=O)[C@@H]2CCCCN2C(=O)C(=O)C(C)(C)C(C)C)c1 (stereo partly drawn) equals 32
